# Study target: T1, human MSLN-FL-his protein (human, UniProt Q13421 296-580)
# T1 construct: made in HEK293E cells, purified on nickel column; also called hMSLN-FL-his; human MSLN full-length protein; not shown: His tag
# T1 sequence (Q13421 other isoform, or with tags, fused parts or gaps): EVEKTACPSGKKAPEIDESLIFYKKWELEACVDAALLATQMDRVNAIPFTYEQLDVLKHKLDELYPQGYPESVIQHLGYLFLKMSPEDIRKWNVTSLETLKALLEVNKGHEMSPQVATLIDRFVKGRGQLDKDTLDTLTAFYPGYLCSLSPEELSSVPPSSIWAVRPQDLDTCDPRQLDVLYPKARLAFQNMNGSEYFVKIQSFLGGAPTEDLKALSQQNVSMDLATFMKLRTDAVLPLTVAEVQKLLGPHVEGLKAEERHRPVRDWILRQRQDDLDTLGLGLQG
# Protocol summary: competitive ELISA; row F8-28.23; further: test concentration or dose not given here

{"Binder": "S009-F8-29.1 (antibody, human IgG1, kappa, V domains shown, human-murine chimeric antibody, human IgG1/kappa constant regions) VH: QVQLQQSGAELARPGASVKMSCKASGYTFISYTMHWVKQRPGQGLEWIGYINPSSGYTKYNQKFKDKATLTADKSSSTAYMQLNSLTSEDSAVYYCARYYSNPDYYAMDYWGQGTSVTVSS VL: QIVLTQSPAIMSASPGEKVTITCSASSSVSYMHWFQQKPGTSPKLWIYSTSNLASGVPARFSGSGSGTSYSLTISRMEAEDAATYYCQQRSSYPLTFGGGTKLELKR", "competition rate, %": 96}
{"Binder": "S009-F8-36.12 (antibody, human IgG1, kappa, V domains shown, human-murine chimeric antibody, human IgG1/kappa constant regions) VH: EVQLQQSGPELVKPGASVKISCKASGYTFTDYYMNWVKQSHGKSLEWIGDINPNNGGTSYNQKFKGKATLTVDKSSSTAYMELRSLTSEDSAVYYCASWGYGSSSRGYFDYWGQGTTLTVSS VL: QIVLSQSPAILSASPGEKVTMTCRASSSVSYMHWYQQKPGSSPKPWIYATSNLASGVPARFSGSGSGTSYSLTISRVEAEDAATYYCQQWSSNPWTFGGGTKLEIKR", "competition rate, %": -10.7}
{"Binder": "S009-F8-28.23 (antibody, human IgG1, kappa, V domains shown, human-murine chimeric antibody, human IgG1/kappa constant regions) VH: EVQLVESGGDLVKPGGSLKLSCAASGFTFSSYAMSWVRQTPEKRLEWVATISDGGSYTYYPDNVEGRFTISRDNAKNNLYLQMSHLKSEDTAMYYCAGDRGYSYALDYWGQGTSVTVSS VL: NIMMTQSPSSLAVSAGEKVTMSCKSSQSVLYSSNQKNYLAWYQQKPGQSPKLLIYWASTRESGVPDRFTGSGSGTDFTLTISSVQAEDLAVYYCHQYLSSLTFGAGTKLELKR", "competition rate, %": 73.4}
